experiment: yeast display, Sf9 membrane polyspecificity reagent, FACS + sequencing; frameworks hold sequencing errors
measurement kind: polyreactivity (PSR sort gate)

A selection of reference data follows.
QVQLVESGGGLVQAGGSLRLSCAASGSIFDYYAMGWYRQAPGKERELVAAIRRIGGITYYADSVKGRFTISRDNAKNTVYLQMNSLKPEDTAVYYCNVLVKHSTTTYSTYDYWGQGTQVTVSS
high polyreactivity
QVQLVESGGGLVQAGGSLRLSCAASGFTIVHYAMGWYRQAPGKERELVAAITWNGGRTYYADSVKGRFTISRDTAKNTVYLQMNSLKPEDTAVYYCAVRYKSWYGFNYWGQGTQVTVSS
high polyreactivity
QVQLVESGGGLVQAGGSLRLSCAASGSIFIFYAMGWYRQAPGNERELVADITSDGASTYYADSVKGRFTISRDNAKNTVYLQMNSLKPEDTAVYYCAADYIDSSAYDYWGQGTQVTVSS
low polyreactivity
QVQLVESGGGLVQAGGSLRLSCAASGRIFRGYARGWYRQAPGKEREFVAAITKNGGSTYYADSVKGRFTISRDNAKNTVYLQMNSLKPEDTAVYYCAVRAWDPYTGKSDYWGQGTQVTVSS
low polyreactivity

Please find the next sequence below.
For the sequence shown here, QVQLQESGGGLVQAGGSLRLSCAASGSIYVSVTMGWYRQAPGKERELVASIGRGSTTNHADSVKGRFTISRDNAKNIVYLLMNSLKPEDTAVYYCAALESYGKYHGYWGEGTQVTVSS , give the reported polyreactivity (PSR sort gate). low polyreactivity

###

assay: yeast display, Sf9 membrane polyspecificity reagent, FACS + sequencing; frameworks hold sequencing errors
measurement kind: polyreactivity (PSR sort gate)

QVQLVESGGGLVQAGGSLRLSCAASGRIFGWNAMGWYRQAPGKERELVAGISSSGGSTYYADSVKGRFTISRDNAKNTVYLQMNSLKPEDTAVYYCARRHYVGYYGYYYWGQGTQVTVSS
high polyreactivity
QVQLVESGGGLVQAGGSLRLSCAASGIIFYSYAMGWYRQAPGKERELVAAISRRGTSTFYADSVKGRFTISRDNAKNTVYLQMNSLKPEDTAVSYCNARYKYYRGSGMDSWGQGTQVTVSS
high polyreactivity
QVQLVESGGGLVKAGGSLRISCAASGRIFGYNAMGWYRQAPGKERELVAVISTSGTITYYADSVKGRFTISRDNAKNTVYLQMNSLKPEDTAVYYCAARYYQRANGFGYWGQGTQVTVSS
low polyreactivity
QVHLVESAGCLVQAGGSLRLSCAASGSIIYLYAMGWYRQAPGKERELVAAISSGGSTNYADSVKGRFTISRDNAKNSVYLQMNSLKPEDTAVYYCAATLPGWYNEYDSWGQGTQVTVSS
low polyreactivity
QVQLVESGGGLVQAGGSLRLSCAASGRTFYDYDMGWYRKAPGKERELVAAISGGDSTYYADSVKGRFTISRDNAKNTVFLQMNSLKPEDTAVYYCAVTPRGLPYGAYLLYYWGQGTQVTVSS
low polyreactivity

Query (sequence): QVQLVVSGGGLVQAGGSLRLSCAASGYIFDYNAMGWYIQSPGKERELVAAINWSGGSTYYADSVKGRFTISRDNAKNTVYLQMNSLKPEDTAVYYCNKLIYGIYYPERYAYDYWGQGTQVTVSS ; field requested: polyreactivity (PSR sort gate) low polyreactivity

###

assay: yeast display, Sf9 membrane polyspecificity reagent, FACS + sequencing; frameworks hold sequencing errors
measurement kind: polyreactivity (PSR sort gate)

Examples with their reported polyreactivity (PSR sort gate) follow.
QVQLVESGGGLVQAGGSLRLSCAASGSTILYNTMGWYRQAPGKERELVATITSRGDRTYYADSVKGRFTISRDNAKNTVYLQMNSLKPEDTAVDYCAADRTDFWPYDYWGQGTQVTVSS
low polyreactivity
QVQLVESGGGLVQAGGSLRLSCAASGSIFSYYAMGWYRQAPGKERELVAAITTGGGTYYADSVKGRFTISRDNAKNTVYLQMNSLKPEDTAVYYCAKDGYPDQDVQVFNDSDYWGQGTQVTVSS
low polyreactivity
QVQLVESGGGLVQAGGSLRLSCAASGFIFNVNAMGWYRQAPGKERELVAAITGGGGSTYYADSVKGRFTISRDNAKNTVYLQMNSLKPEDTAVYYCARGRTIRSSRTGGSWGQGTQVTVSS
high polyreactivity
QVQLVESGGGLVQAGGSLRLSCAASGRIFGPYAMGWYRQAPGKERELVASISYSGGSTYYADSVKGRFTISRDNAKNTVYLQMNSLKPEDTAVYYCARRAVYSKRRYDYWGQGTQVTVSS
low polyreactivity
QVQLVESGGGLVQAGGSLRLSCAASGRTFPYYAMGWYRQAPGKERELVARITSGSGTYYADSVKGRFTISRDNAKNTVYLQMNSLKPEDTAVYYCAAREPGVGYVGHYTGLDYWGQGTQVTVSS
low polyreactivity

Entry QVQLVESGGGLVQAGGSLRLSCAASGGIFTGYAMGWYRQAPGKERELVAAISSGGTTYYADSVKGRFTISRDNAKITVHLQMNSLKPEDTAVYYCAAGFYLRAVWMDYWGQGTQVTVSS has what polyreactivity (PSR sort gate)? high polyreactivity

What value of polyreactivity (PSR sort gate) has been recorded for this entry: QVQLVESGGGIVQAGGSLRLSCAASGLIFLDNAMGWYRQAPGKEREFVAAIDSGGSTNYADSVKGRFTISRDNAKNNVYLQMNSLKPEDTAVYYCAAVWIYAPWYYQESVEYYYWGQGTQVSVSS low polyreactivity
